# reported EC50; entries follow
# System: Human orthopneumovirus
# ASSAY_COMMENT: Antiviral activity against Human respiratory syncytial virus A2 infected in african green monkey Vero 76 cells assessed as reduction of virus-induced plaque formation after 5 days using crystal violet staining
# Format: functional, organism-based
# CONDITIONS: 120 h

| COMPOUND | EC50 |
| --- | --- |
| Oc1ccnc2c(Cl)c3[nH]c(-c4ccccc4)nc3cc12 | > 100 µM |
| c1cnc2cc3[nH]nnc3cc2c1 | > 100 µM |
| Clc1c2ncccc2cc2nc(-c3ccccc3)[nH]c12 | > 100 µM |
| O=[N+]([O-])c1ccc(-c2nc3cc4cccnc4cc3[nH]2)c2ccccc12 | > 100 µM |
| N#CCn1nnc2c(Cl)c3ncccc3cc21 | > 100 µM |
| [O-][n+]1n[nH]c2c(Cl)c3ncccc3cc21 | > 100 µM |
| CCc1nc2cc3cccnc3c(Cl)c2[nH]c1=O | 18 µM |
| COc1ccccc1-c1nc2cc3cccnc3cc2[nH]1 | > 75 µM |
| O=[N+]([O-])c1c2cccnc2c(Cl)c2[nH]nnc12 | > 100 µM |
| O=c1[nH]c2cc3c(O)ccnc3c(Cl)c2nc1-c1ccccc1 | > 100 µM |
| [O-][n+]1n[nH]c2c(Cl)c3nccc(O)c3cc21 | > 100 µM |
| O=c1cnn([C@@H]2O[C@H](CO)[C@@H](O)[C@H]2O)c(=O)[nH]1 | 1.2 µM |
| O=[N+]([O-])c1ccc(-c2nc3cc4cccnc4cc3[nH]2)cc1 | > 95 µM |
| Clc1ccc(-c2nc3cc4cccnc4cc3[nH]2)cc1 | > 100 µM |
| CC(C)c1nc2c(Cl)c3ncccc3cc2[nH]c1=O | > 100 µM |
| O=c1[nH]c2cc3cccnc3c(Cl)c2nc1Cc1ccccc1 | > 88 µM |
| Clc1c2ncccc2cc2ncc(-c3ccccc3)nc12 | > 100 µM |
| O=C(CCl)Cn1nnc2c(Cl)c3ncccc3cc21 | > 100 µM |
| CCOC(=O)C(C)c1nc2cc3cccnc3c(Cl)c2[nH]c1=O (stereo not given) | > 100 µM |
| c1ccc(-c2nc3cc4cccnc4cc3[nH]2)cc1 | > 100 µM |
| CC(C)c1nc2cc3cccnc3c(Cl)c2[nH]c1=O | 38 µM |
| O=C(CCl)Cn1nnc2cc3cccnc3c(Cl)c21 | > 100 µM |
| O=[N+]([O-])c1ccc(-c2nc3cc4cccnc4c(Cl)c3[nH]2)cc1 | > 100 µM |
| Clc1c2ncccc2cc2nc(-c3ccccc3)c(-c3ccccc3)nc12 | > 100 µM |
| N#CCn1nnc2cc3cccnc3c(Cl)c21 | > 100 µM |

###

In this section we review reported CC50 values for a set of molecules.
# ASSAY_COMMENT: Cytotoxicity against human GS4.1 cells
# Type: cell-based
PROPERTY: CC50 (µM)

| SMILES | NUMERIC_VALUE |
| --- | --- |
| O=c1[nH]c2cc3cccnc3c(Cl)c2nc1-c1ccccc1 | 11 |
| O=[N+]([O-])c1ccc(-c2nc3cc4cccnc4c(Cl)c3[nH]2)cc1 | 12 |
| O=c1[nH]c2cc3cccnc3c(Cl)c2nc1Cc1ccccc1 | 65 |
